Biological target: UniProt:Q7Z628
Sequence (Q7Z628 whole entry, the tested form may be a part): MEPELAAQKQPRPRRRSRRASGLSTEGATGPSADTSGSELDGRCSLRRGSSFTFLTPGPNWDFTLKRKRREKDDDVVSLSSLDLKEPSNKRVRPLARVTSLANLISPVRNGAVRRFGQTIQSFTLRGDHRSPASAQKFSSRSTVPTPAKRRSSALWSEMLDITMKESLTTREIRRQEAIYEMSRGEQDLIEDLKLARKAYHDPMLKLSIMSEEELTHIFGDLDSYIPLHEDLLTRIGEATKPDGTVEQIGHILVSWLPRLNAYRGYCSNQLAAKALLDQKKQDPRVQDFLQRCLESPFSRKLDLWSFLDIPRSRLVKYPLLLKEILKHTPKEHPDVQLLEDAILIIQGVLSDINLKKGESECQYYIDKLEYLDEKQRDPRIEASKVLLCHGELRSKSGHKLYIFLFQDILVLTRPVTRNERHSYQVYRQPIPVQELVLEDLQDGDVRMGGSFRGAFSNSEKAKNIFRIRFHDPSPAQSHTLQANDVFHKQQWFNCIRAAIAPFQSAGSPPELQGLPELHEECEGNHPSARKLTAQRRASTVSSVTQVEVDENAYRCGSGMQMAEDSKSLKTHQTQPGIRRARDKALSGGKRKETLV
Experiment: Inhibition of Net1 (149 to 501 residues) (unknown origin) interaction with GDP-loaded His-tagged RhoA F25N mutant (1 to 180 residues) assessed as reduction in BODIPY-GTP-GDP exchange at 200 uM pretreated for 30 mins followed by RhoA addition by fluorescence based spectrophotometric method relative to control
measurement-label: inhibition (%)

COc1cc(C)c2c(c1)Oc1c(cc(OC)cc1C(=O)O)OC2=O    5
COc1c(O)cc2c3c(cc4c(O)cccc4c13)NC2=O    5
CN1CCc2cc3c(c4c2c1cc1ccccc14)OCO3 [DEHYDROROEMERINE]    83
COc1c(O)cc2c3c(cc4ccccc4c13)NC(=O)C2=O    4
